Data origin, for the record: patent US20240400659A1

Biological target: T1, Apolipoprotein E4 (human, UniProt P02649 19-317)
T1 construct: also called ApoE4; hApoE4
T1 sequence (P02649 19-317 C130R limits assumed): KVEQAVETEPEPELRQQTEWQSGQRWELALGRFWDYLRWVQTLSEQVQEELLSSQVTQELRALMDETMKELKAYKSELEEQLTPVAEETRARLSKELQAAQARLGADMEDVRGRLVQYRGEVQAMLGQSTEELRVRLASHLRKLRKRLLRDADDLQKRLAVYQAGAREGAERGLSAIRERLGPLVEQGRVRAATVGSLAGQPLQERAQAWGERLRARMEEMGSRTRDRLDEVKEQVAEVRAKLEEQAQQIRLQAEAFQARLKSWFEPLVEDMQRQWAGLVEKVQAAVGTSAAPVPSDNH
Assay: pH affinity ELISA, coated hApoE4, pH 7.4
What EC50 was measured for each of the following?
Answers are plain numbers, in µg/mL.

Consider the following illustrative entries.
>  <binder>
Anti-ApoE wildtype antibody BAP191.01-WT (antibody, V domains shown, also called benchmark; parent) VH: QIQLVQSGPELKKPGETVKISCKASGYTFTTAGMQWVQKMPGKGFKWIGWINTHSGEPKYAEDFKGRFAFSLETSASTAYLQISNLKNEDTATYFCARMGGYAMDYWGQGTSVTVSS VL: DIKLTQSPSSMYASLGERVTITCKASEDINSYLSWFQQKPGKSPKTLIYRANRLVDGVPSRFSGSGSGQDYSLTISSLEYEDMGIYYCLQYDEFPLTFGAGTKLELT

>  <value units>
µg/mL

>  <EC50>
0.0368

$$$$
>  <binder>
BAP191-01-CPE-HC-M034D (antibody, V domains shown) VH: QIQLVQSGPELKKPGETVKISCKASGYTFTTAGDQWVQKMPGKGFKWIGWINTHSGEPKYAEDFKGRFAFSLETSASTAYLQISNLKNEDTATYFCARMGGYAMDYWGQGTSVTVSS VL: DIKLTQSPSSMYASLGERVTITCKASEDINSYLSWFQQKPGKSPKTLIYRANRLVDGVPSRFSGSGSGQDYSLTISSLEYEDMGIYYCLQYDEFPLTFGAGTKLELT

>  <value units>
µg/mL

>  <EC50>
2.06

$$$$

// next entry
Exercise: What value of measured EC50 is listed for BAP191.01-CPE-LC-P095D (antibody, V domains shown) VH: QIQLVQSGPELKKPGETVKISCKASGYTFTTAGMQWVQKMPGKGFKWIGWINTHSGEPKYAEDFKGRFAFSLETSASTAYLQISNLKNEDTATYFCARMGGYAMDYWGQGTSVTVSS VL: DIKLTQSPSSMYASLGERVTITCKASEDINSYLSWFQQKPGKSPKTLIYRANRLVDGVPSRFSGSGSGQDYSLTISSLEYEDMGIYYCLQYDEFDLTFGAGTKLELT ?
Solution: 0.147
